# CC50 at 7 days annotations
Assay: Cytotoxicity
Assay type: cell-based, human
Settings: human, freshly isolated and stimulated uninfected PBMC
Readout type: CC50 at 7 days (µM)

- Compound: "Cc1nc(C(CN)NC(=O)c2ccc(-c3ccc4c(c3)OCO4)[nH]2)sc1CO (stereo not drawn) [NBD-14110]"
  Readout type: "CC50 at 7 days"
  Unit text: "µM"
  Value observed: 62.8
- Compound: "NCC(NC(=O)c1ccc(-c2ccc3c(c2)OCO3)[nH]1)c1ncc(CO)s1 (stereo not drawn) [NBD-14123]"
  Readout type: "CC50 at 7 days"
  Unit text: "µM"
  Value observed: 61.3
- Compound: "CNCC(NC(=O)c1ccc(-c2ccc3c(c2)OCO3)[nH]1)c1nc(CO)cs1 (stereo not drawn) [NBD-14159]"
  Readout type: "CC50 at 7 days"
  Unit text: "µM"
  Value observed: 68.3

###

# IC50 annotations
System: HIV-1 Env pseudovirus ZM109F.PB4
Assay: Single-cycle assay TZM-bl, Env pseudovirus panel
Conditions: TZM-bl
Readout type: IC50

- Compound: "NCC(NC(=O)c1ccc(-c2ccc3c(c2)OCO3)[nH]1)c1ncc(CO)s1 (stereo not drawn)"
  Readout type: "IC50"
  Value observed: "3 µM"
- Compound: "CNCC(NC(=O)c1ccc(-c2ccc3c(c2)OCO3)[nH]1)c1nc(CO)cs1 (stereo not drawn)"
  Readout type: "IC50"
  Value observed: "3.3 µM"
- Compound: "Cc1nc(C(CN)NC(=O)c2ccc(-c3ccc4c(c3)OCO4)[nH]2)sc1CO (stereo not drawn)"
  Readout type: "IC50"
  Value observed: "4.9 µM"

###

Test system: MT-2 cells
Assay: Cytotoxicity
Format: cell-based, human
Details: read-out: MT-2 CC50, MTS, mean ± SD, n=3

- Molecule: "NCC(NC(=O)c1ccc(-c2ccc3c(c2)OCO3)[nH]1)c1ncc(CO)s1 (centres unmarked)"
  Tested target: "MT-2 cells"
  CC50: "183 µM"
- Molecule: "CNCC(NC(=O)c1ccc(-c2ccc3c(c2)OCO3)[nH]1)c1ncc(CO)s1 (centres unmarked)"
  Tested target: "MT-2 cells"
  CC50: "173 µM"
- Molecule: "CC(C)(N)C(NC(=O)c1ccc(-c2ccc3c(c2)OCO3)[nH]1)c1ncc(CO)s1 (centres unmarked)"
  Tested target: "MT-2 cells"
  CC50: "106 µM"
- Molecule: "Cc1nc(C(CN)NC(=O)c2ccc(-c3ccc4c(c3)OCO4)[nH]2)sc1CO (centres unmarked)"
  Tested target: "MT-2 cells"
  CC50: "170 µM"
- Molecule: "NCC(NC(=O)c1ccc(-c2ccc3c(c2)OC(F)(F)O3)[nH]1)c1ncc(CO)s1 (centres unmarked)"
  Tested target: "MT-2 cells"
  CC50: "41 µM"
- Molecule: "CNCC(NC(=O)c1ccc(-c2ccc3c(c2)OCO3)[nH]1)c1nc(CO)cs1 (centres unmarked)"
  Tested target: "MT-2 cells"
  CC50: "180 µM"
- Molecule: "NCC(NC(=O)c1ccc(-c2ccc3c(c2)OCO3)[nH]1)c1nc(CO)cs1 (centres unmarked)"
  Tested target: "MT-2 cells"
  CC50: "176 µM"
- Molecule: "CC1(C)Oc2ccc(-c3ccc(C(=O)NC(CN)c4ncc(CO)s4)[nH]3)cc2O1 (centres unmarked)"
  Tested target: "MT-2 cells"
  CC50: "89.3 µM"
- Molecule: "Cc1nc(C(NC(=O)c2ccc(-c3ccc4c(c3)OCO4)[nH]2)C(C)(C)N)sc1CO (centres unmarked)"
  Tested target: "MT-2 cells"
  CC50: "98 µM"
- Molecule: "NCC(NC(=O)c1ccc(-c2ccc3nsnc3c2)[nH]1)c1ncc(CO)s1 (centres unmarked)"
  Tested target: "MT-2 cells"
  CC50: "137 µM"
- Molecule: "Cc1nc([C@@H](CN)NC(=O)c2ccc(-c3ccc(F)c(F)c3)[nH]2)sc1CO (single isomer, unassigned) [NBD-14113, reference compound]"
  Tested target: "MT-2 cells"
  CC50: "96.8 µM"
